assay.method.text: Primary qHTS for inhibitors of MERS-S pseudo-typed particle cell entry (AID 1479149); note: nearly all actives have a fitted effect of over 60% in size
details: MERS-S pseudotyped particle entry, luciferase; series mostly up to 57.1 µM
Inconclusive results are not listed. The source made the active and inactive calls. Calls come from the whole dose curve.
endpoint.label: outcome

Some entries whose results are on file:
compound: O=C(NCC1CCCCN1)c1cc(OCC(F)(F)F)ccc1OCC(F)(F)F (centres undefined)
outcome: inactive

compound: CC(C)CN(C[C@@H](OP(=O)(O)O)[C@H](Cc1ccccc1)NC(=O)O[C@H]1CCOC1)S(=O)(=O)c1ccc(N)cc1
outcome: inactive

compound: Cc1c(C(=O)O)c(O)cc2c1C(=O)c1c(O)c([C@@H]3O[C@H](CO)[C@@H](O)[C@H](O)[C@H]3O)c(O)c(O)c1C2=O
outcome: inactive

compound: COc1ccc(NS(=O)(=O)c2ccc(N)cc2)nn1
outcome: inactive

compound: COc1cccc(C(=O)CCN[C@@H](C)[C@H](O)c2ccccc2)c1
outcome: inactive

Name the reported outcome value associated with the compound "Cc1cc2c(cc1CC(=O)c1sccc1S(=O)(=O)Nc1onc(C)c1Cl)OCO2"
inactive

Input "c1ccc2c(CC3=NCCN3)cccc2c1"
inactive

Input "O=C(OCC1(COC(=O)c2cccnc2)CCCC(COC(=O)c2cccnc2)(COC(=O)c2cccnc2)C1O)c1cccnc1"
inactive

Input "COc1ccc2cc1Oc1cc3c(cc1OC)CC[N+](C)(C)[C@H]3Cc1ccc(cc1)Oc1c(OC)c(OC)cc3c1[C@@H](C2)[N+](C)(C)CC3"
inactive

----------
details: Ebola virus entry assay, green fluorescence channel
Potency and affinity values are given separately.
Reported efficacy values for the following compounds.
Report as a plain number; the unit % is understood.

Some entries whose results are on file:
compound: COc1cnc(NS(=O)(=O)c2ccc(N)cc2)nc1
efficacy / %: -24.4
--
compound: Nc1nc(-c2ccccc2)c(Br)c(=O)[nH]1
efficacy / %: -17
--
compound: CC(CC(C#N)(c1ccccc1)C(C)C)N(C)C (stereo not given)
efficacy / %: -15

Name the reported efficacy value associated with the compound CC(=O)C1CCOC1=O (stereo not given)
6.81

Input "COCCOCC(OC)OC"
16.2

----------
System: KB-3-1
assay.method.text: Cytotoxic Profiling of Annotated Libraries Using Quantitative High-Throughput Screening (AID 1296008); note: % is set by controls: 0 for no effect and ±100 for the full control effect; nearly all actives have a fitted effect of over 60% in size
details: Five cell lines viability, CellTiter-Glo ATP luminescence, 48-72 h; stronger effect = lower value
Results filed as inconclusive are left out. The source made the active and inactive calls. Calls follow the shape of the dose curve; as a rule, active = well fitted inhibition curve with a large enough effect; inconclusive = small, poorly fitted or top-dose-only effect; inactive = flat fitted curve, though single readings scatter.
endpoint.label: max response

compound: CC(C)(C)NCC(O)c1ccccc1Cl (configuration not stated)
max response: 2.34% (inactive)

Record lookup: for KB-3-1, what max response belongs to "c1ccc2c(c1)sc1ccccc12" ?
-1.3% (inactive)

Input "COc1ccc2c(c1OC)C(=O)O[C@H]2[C@@H]1c2cc3c(cc2CCN1C)OCO3"
3.84% (inactive)

Input "O=C1CN=C(c2ccccc2)c2cc([N+](=O)[O-])ccc2N1"
3.93% (inactive)

Input "CC(=O)OCC1=C(C(=O)O)N2C(=O)[C@@H](N)[C@H]2SC1"
-19.8% (inactive)

Input "CCc1cc2c(s1)-n1c(C)nnc1CN=C2c1ccccc1Cl"
-14.4% (inactive)

Input "O=C(Nc1ccc(Br)cc1)c1cc(Br)cc(Br)c1O"
-24% (inactive)

----------
assay.method.text: Quantitative High-Throughput drug screen in 47 multiple myeloma cell lines against the NCATS MIPE library collection: ARP1_JJKsccF8 cell viability assay (AID 1918928; note: nearly all actives have a fitted effect of over 40% in size;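 for viability: 100% = DMSO only wells and 0% = medium only wells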)
details: ARP1 myeloma cells viability, CellTiter-Glo ATP, 48 h; series mostly up to 45.8 µM
Results filed as inconclusive are left out. Active and inactive are the calls of the source. Calls come from the whole dose curve; as a rule, active = well fitted cell-killing curve with a large enough effect; inconclusive = small, poorly fitted or top-dose-only effect, or effect the other way; inactive = no such curve, though single readings can be large or run the other way.
Bench note: report the call from T for active, F for inactive

compound: C[C@]12CC[C@H]3[C@@H](CC[C@@]45O[C@H]4C(O)=C(C#N)C[C@]35C)[C@H]1CC[C@H]2O
group.label: F
--
compound: CC(NC(C)(C)C)C(=O)c1cccc(Cl)c1 (centres undefined)
group.label: T
--
compound: C[C@](O)(CS(=O)(=O)c1ccc(F)cc1)C(=O)Nc1ccc(C#N)c(C(F)(F)F)c1
group.label: T

Shifting focus to the compound that follows.
Write down the call the test reported for this compound. Item: "COc1cc(OC)c(OC)cc1C=O"
F
